test system: Hepatitis B virus; assay: Antiviral activity against Hepatitis B virus infected in human HepG2.2.15 cells assessed as inhibition of viral replication after 7 days by RT-PCR analysis; format: functional, organism-based; conditions: HepG2.2.15, 168 h
Could you please mark rule met for values of IC50 below 4 µM and rule not met for values at or above it?

- compound: "COc1ccc(C(=O)Nc2ncc(C(Nc3cccc4ccccc34)c3ccc(Cl)cc3)s2)cc1 (stereo not given)"
  category.label: "rule not met"
- compound: "COc1ccc(C(=O)Nc2ncc(C(Oc3ccc4cc(Br)ccc4c3)c3ccc(Cl)cc3)s2)cc1 (stereo not given)"
  category.label: "rule met"
- compound: "O=C(Nc1ncc(C(Oc2ccc3cc(Br)ccc3c2)c2ccc(Cl)cc2)s1)c1ccc(F)cc1Br (stereo not given)"
  category.label: "rule met"
- compound: "CC(C)(C)OC(=O)Nc1ncc(C(Oc2ccc3cc(Br)ccc3c2)c2ccc(Cl)cc2)s1 (stereo not given)"
  category.label: "rule met"
- compound: "O=C(Nc1ncc(Cc2ccc(F)cc2)s1)c1cccs1"
  category.label: "rule not met"

---

biological target: Core antigen (Hepatitis B virus); assay: Inhibition of GFP-fused Hepatitis B Virus capsid expressed in HEK293T cells at 50 uM after 48 hrs relative to control; assay type: cell-based
Calls of active or inactive are those of the source. The rule behind the calls is not given here.
assay.endpoint: inhibition

- molecule: "COc1ccc(C(=O)Nc2ncc(C(Sc3ccc4ccccc4c3)c3ccc(Cl)cc3)s2)cc1 (stereo not drawn)"
  experimental.result: "49%"
- molecule: "CC(C)(C)C(=O)Nc1ncc(C(Oc2ccc3cc(Br)ccc3c2)c2ccc(Cl)cc2)s1 (stereo not drawn)"
  experimental.result: "47%"
- molecule: "O=C(Nc1ncc(C(Oc2ccc3cc(Br)ccc3c2)c2ccc(Cl)cc2)s1)c1cc(F)c(F)cc1F (stereo not drawn)"
  experimental.result: "44%"
- molecule: "COc1ccc(C(=O)Nc2ncc(C(Nc3cccc4ccccc34)c3ccc(Cl)cc3)s2)cc1 (stereo not drawn)"
  experimental.result: "69%"
- molecule: "COCCCNc1ncc(C(Oc2ccc3cc(Br)ccc3c2)c2ccc(Cl)cc2)s1 (stereo not drawn)"
  experimental.result: "38%"
- molecule: "O=C(Nc1ncc(C(Oc2ccc3cc(Br)ccc3c2)c2ccc(Cl)cc2)s1)c1ccc(Br)cc1 (stereo not drawn)"
  experimental.result: "inactive"
- molecule: "Clc1ccc(C(Oc2ccc3cc(Br)ccc3c2)c2cnc(NCC3CCCCC3)s2)cc1 (stereo not drawn)"
  experimental.result: "61%"
- molecule: "CCc1ccc(S(=O)(=O)Nc2ncc(C(Oc3ccc4cc(Br)ccc4c3)c3ccc(Cl)cc3)s2)cc1 (stereo not drawn)"
  experimental.result: "inactive"
- molecule: "O=C(Nc1ncc(C(Oc2ccc3cc(Br)ccc3c2)c2ccc(Cl)cc2)s1)c1ccc(F)cc1 (stereo not drawn)"
  experimental.result: "50%"
- molecule: "O=C(Nc1ncc(C(Oc2ccc3cc(Br)ccc3c2)c2ccc(Cl)cc2)s1)c1ccccc1 (stereo not drawn)"
  experimental.result: "58%"
- molecule: "O=C(Nc1ncc(C(OCc2ccc(Br)cc2)c2ccccc2)s1)c1cccs1 (stereo not drawn)"
  experimental.result: "64%"
- molecule: "O=C(CCCCC(=O)Nc1ncc(Cc2ccc(F)cc2)s1)Nc1ncc(Cc2ccc(F)cc2)s1"
  experimental.result: "inactive"
- molecule: "O=C(Nc1ncc(C(Oc2ccc3cc(Br)ccc3c2)c2ccc(Cl)cc2)s1)c1ccc(F)cc1F (stereo not drawn)"
  experimental.result: "51%"
- molecule: "CCCCCC(=O)Nc1ncc(C(Oc2ccc3cc(Br)ccc3c2)c2ccc(Cl)cc2)s1 (stereo not drawn)"
  experimental.result: "inactive"
- molecule: "O=C(Nc1ncc(Cc2ccc(Cl)cc2)s1)c1cccs1"
  experimental.result: "59%"
- molecule: "Cc1ccc(C(=O)Nc2ncc(C(Oc3ccc4cc(Br)ccc4c3)c3ccc(Cl)cc3)s2)cc1 (stereo not drawn)"
  experimental.result: "71%"
- molecule: "O=C(Nc1ncc(C(OCc2ccc3ccccc3c2)c2ccccc2)s1)c1cccs1 (stereo not drawn)"
  experimental.result: "47%"
- molecule: "O=C(Nc1ncc(Cc2ccc(F)cc2)s1)c1ccc(Br)cc1"
  experimental.result: "inactive"
- molecule: "O=S(=O)(Nc1ncc(C(Oc2ccc3cc(Br)ccc3c2)c2ccc(Cl)cc2)s1)c1cccs1 (stereo not drawn)"
  experimental.result: "44%"
- molecule: "CC(C)(C)OC(=O)Nc1ncc(C(Oc2cccc(C#N)c2)c2ccc(Cl)cc2)s1 (stereo not drawn)"
  experimental.result: "inactive"
- molecule: "O=S(=O)(Nc1ncc(C(Oc2ccc3cc(Br)ccc3c2)c2ccc(Cl)cc2)s1)c1ccc2c(c1)CCO2 (stereo not drawn)"
  experimental.result: "inactive"
- molecule: "Cc1cc(C(C)C)ccc1OC(c1ccc(Cl)cc1)c1cnc(NC(=O)OC(C)(C)C)s1 (stereo not drawn)"
  experimental.result: "inactive"
- molecule: "Cc1ccc(COC(c2ccccc2)c2cnc(NC(=O)c3cccs3)s2)cc1 (stereo not drawn)"
  experimental.result: "64%"
